Origin of the recorded values: ChEMBL document CHEMBL1201862

The entries below come with measured GI50 values attached.
Test system: CAKI-1
Assay: NCI tumour cell line growth inhibition, 48 h
Active and inactive are the calls of the source. Rule as the data show it: active = GI50 up to about 1.1 µM and inactive = higher.

Record request: GI50 value, item C=C1CC/C=C(\C)C(=O)C[C@@H]2[C@@H]1CC2(C)C
1.38 µM (inactive)

====

Test system: MDA-N
Assay: NCI tumour cell line growth inhibition, 48 h
The source made the active and inactive calls. Cut-off read from the data, not from the text of the source: active = GI50 up to about 1.1 µM and inactive = higher.
Return exactly one item of active, inactive

Previously resolved entries follow.
Please state the recorded outcome for this compound: Cn1c(=O)c2nc(SCCN3CCOCC3)[nH]c2n(C)c1=S
inactive

Also check C[C@H](OC(=O)/C=C/c1ccc(O)c(O)c1)[C@H](C)OC(=O)/C=C/c1ccc(O)c(O)c1
inactive

Also check O=c1c2ccccc2c2ccccc2c(=O)n1Cc1ccc2c(c1)OCO2
inactive

Also check COC(=O)N1C[C@@]2(C=CC3(CC2)OCCO3)c2ccccc21
inactive

Also check Cc1cc2nc(-c3c(F)cccc3F)n(Cc3c(F)cccc3F)c2cc1C
inactive

Also check CC(C)SC1SCC2C(=O)N(C)C3(CC3C)C(=O)OCC(NC(=O)c3nc4ccccc4cc3O)C(=O)NC(C)C(=O)N(C)C1C(=O)N(C)C1(CC1C)C(=O)OCC(NC(=O)c1nc3ccccc3cc1O)C(=O)NC(C)C(=O)N2C (stereo not given)
active

Also check O=c1c2cccnc2[s+]([O-])n1Cc1ccccc1 (stereo not given)
inactive

Also check COc1cccc(C2c3cc4c(cc3OC(N3CCOCC3)C2C)OCO4)c1 (stereo not given)
inactive

Also check C/C(=N\NC(=O)c1ccc(Cl)cc1)c1nc2cccnc2[nH]1
inactive

Also check OC1(c2ccc(Cl)cc2)c2ccccc2-c2nc3ccccc3n21 (stereo not given)
inactive

Further cases:
Please state the recorded outcome for this compound: Cc1nn(C(=O)c2ccc(Cl)cc2)c2c1C(c1ccccc1O)SC(=N)N2 (stereo not given)
inactive

Also check COc1cc(C2c3c(ccc4ccccc34)C(=O)C3CCC(=O)N32)cc(OC)c1O (stereo not given)
inactive

Also check O=C1C2=Cc3ccccc3OC2(O)Oc2cc3ccccc3cc21 (stereo not given)
inactive

Also check O=c1cc(O)c1=O
inactive

Also check CCOC(=O)C1CN(C2CC2)CCC1=O (stereo not given)
inactive
